measure: melting point

The examples below pair each entry with its known result.
>>> df
                           substance_smiles        measure  observed_measurement
0  O=C(NCC(c1ccccc1)c1ccccc1)c1coc(-c2ccccc2O)n1  melting point         206 to 208 °C
1  O=C(O)c1ccc(CNC(=O)c2coc(-c3ccccc3O)n2)cc1  melting point         248 to 251 °C
2  O=C(NC(c1ccccc1)c1ccccc1)c1coc(-c2ccccc2O)n1  melting point         226 to 227 °C

So for O=C(Nc1ccccc1)c1coc(-c2ccccc2O)n1 , the logged melting point turned out to be 173 to 174 °C

The reported melting point of the compound O=C(Nc1ccc(-c2ccccc2)cc1)c1coc(-c2ccccc2O)n1 was 218 to 219 °C

Entry O=C(NCc1ccc(-c2ccccc2)cc1)c1coc(-c2ccccc2O)n1 , melting point reported as 220 to 221 °C

* * *

Measured HDAC 10 inhibitory activity of individual entries
test.system: Recombinant human HDAC10 (Homo sapiens, UniProt Q969S8)
Construct: purchased BPS Biosciences
Sequence (Q969S8 whole entry): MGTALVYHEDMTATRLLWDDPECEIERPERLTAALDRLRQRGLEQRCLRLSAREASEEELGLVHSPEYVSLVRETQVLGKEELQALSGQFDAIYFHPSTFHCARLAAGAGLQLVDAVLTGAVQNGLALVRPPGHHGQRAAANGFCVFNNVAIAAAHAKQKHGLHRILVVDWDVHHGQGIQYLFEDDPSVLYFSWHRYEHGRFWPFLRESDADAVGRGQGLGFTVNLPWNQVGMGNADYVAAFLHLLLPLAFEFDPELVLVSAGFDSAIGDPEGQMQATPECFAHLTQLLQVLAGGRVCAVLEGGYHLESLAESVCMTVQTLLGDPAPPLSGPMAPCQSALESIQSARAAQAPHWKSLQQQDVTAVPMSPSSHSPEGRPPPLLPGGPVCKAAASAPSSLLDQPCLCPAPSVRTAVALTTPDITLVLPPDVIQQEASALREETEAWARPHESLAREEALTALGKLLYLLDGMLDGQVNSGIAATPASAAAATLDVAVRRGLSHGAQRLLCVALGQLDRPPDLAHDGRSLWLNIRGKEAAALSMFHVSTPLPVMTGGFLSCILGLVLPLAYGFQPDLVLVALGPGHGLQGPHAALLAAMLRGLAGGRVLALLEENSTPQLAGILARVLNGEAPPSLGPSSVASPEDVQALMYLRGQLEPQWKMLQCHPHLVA
assay.overview: HDAC inhibitory assay, HDAC10 (Boc-Lys(Ac)-AMC substrate)
Format: biochemical
stated.conditions: test concentration not given; average of triplicate
Where a name gives a salt, the structure may show the parent alone.
Give just the numeric value; % need not be written.

>>> print(df.to_string())
                                   compound  unit_info  observed_measurement
0  O=C(CNC(=O)c1coc(-c2ccccc2O)n1)Nc1ccccc1          %                  54.7
1  O=C(NCCCCNCCC(c1ccccc1)c1ccccc1)c1coc(-c2ccccc2O)n1 [Example 12, hydrochloride]          %                  26.2
2  O=C(NCCCCNC(=O)C(c1ccccc1)c1ccccc1)c1coc(-c2ccccc2O)n1          %                  56.5

Lab book: HDAC 10 inhibitory activity of O=C(NC(c1ccccc1)c1ccccc1)c1coc(-c2ccccc2O)n1 noted as 47.1

Entry O=C(Nc1ccccc1)c1ccc(CNC(=O)c2coc(-c3ccccc3O)n2)cc1 , HDAC 10 inhibitory activity reported as 56.3

* * *

test.system: Recombinant human HDAC9 (Homo sapiens)
Construct: purchased BPS Biosciences
Sequence (Q9UKV0 whole entry): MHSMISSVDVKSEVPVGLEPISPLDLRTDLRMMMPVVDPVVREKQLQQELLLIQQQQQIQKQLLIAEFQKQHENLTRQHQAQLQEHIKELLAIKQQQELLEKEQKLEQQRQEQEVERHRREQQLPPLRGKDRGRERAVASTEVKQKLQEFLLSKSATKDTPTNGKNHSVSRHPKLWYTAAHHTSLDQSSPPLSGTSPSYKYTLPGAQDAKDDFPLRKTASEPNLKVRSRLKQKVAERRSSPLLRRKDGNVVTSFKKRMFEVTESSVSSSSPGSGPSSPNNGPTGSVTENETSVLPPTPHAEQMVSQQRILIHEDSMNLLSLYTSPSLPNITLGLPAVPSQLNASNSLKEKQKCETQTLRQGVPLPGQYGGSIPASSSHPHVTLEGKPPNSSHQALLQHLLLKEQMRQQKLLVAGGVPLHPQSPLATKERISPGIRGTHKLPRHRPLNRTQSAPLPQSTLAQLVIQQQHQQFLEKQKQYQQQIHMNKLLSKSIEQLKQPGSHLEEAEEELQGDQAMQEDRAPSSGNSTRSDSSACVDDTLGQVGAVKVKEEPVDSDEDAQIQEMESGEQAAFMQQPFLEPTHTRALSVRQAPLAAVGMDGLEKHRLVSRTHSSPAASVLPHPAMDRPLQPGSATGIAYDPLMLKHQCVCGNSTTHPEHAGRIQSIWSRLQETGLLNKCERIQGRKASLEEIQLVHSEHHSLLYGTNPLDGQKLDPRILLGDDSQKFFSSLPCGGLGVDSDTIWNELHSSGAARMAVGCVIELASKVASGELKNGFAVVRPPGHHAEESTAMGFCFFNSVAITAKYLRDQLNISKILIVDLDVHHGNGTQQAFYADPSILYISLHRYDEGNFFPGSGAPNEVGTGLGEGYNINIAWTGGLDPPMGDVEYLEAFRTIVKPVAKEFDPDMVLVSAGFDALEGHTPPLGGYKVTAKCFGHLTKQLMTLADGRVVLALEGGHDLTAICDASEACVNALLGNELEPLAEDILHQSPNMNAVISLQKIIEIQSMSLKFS
assay.overview: HDAC inhibitory assay, HDAC9 (Boc-Lys(Tfa)-AMC substrate)
Assay type: biochemical
stated.conditions: test concentration not given; average of triplicate
measure: HDAC 9 inhibitory activity (%)
Write the answer as a number in %, unit excluded.

>>> df
                           substance_smiles  observed_measurement
0  O=C(NCCc1c[nH]c2ccccc12)c1coc(-c2ccccc2O)n1                  18.4
1  O=C(NCc1cccc2ccccc12)c1coc(-c2ccccc2O)n1                  15.5
2  O=C(NCc1ccc(-c2ccccc2)cc1)c1coc(-c2ccccc2O)n1                  20.8
3  O=C(NCC(c1ccccc1)c1ccccc1)c1coc(-c2ccccc2O)n1                  21.6

// moving on: another record for HDAC 9 inhibitory activity
Lab book: HDAC 9 inhibitory activity of O=C(NCCC(c1ccccc1)c1ccccc1)c1coc(-c2ccccc2O)n1 noted as 28.2

* * *

test.system: Recombinant human HDAC6 (Homo sapiens)
Construct: purchased BPS Biosciences
Sequence (Q9UBN7 whole entry): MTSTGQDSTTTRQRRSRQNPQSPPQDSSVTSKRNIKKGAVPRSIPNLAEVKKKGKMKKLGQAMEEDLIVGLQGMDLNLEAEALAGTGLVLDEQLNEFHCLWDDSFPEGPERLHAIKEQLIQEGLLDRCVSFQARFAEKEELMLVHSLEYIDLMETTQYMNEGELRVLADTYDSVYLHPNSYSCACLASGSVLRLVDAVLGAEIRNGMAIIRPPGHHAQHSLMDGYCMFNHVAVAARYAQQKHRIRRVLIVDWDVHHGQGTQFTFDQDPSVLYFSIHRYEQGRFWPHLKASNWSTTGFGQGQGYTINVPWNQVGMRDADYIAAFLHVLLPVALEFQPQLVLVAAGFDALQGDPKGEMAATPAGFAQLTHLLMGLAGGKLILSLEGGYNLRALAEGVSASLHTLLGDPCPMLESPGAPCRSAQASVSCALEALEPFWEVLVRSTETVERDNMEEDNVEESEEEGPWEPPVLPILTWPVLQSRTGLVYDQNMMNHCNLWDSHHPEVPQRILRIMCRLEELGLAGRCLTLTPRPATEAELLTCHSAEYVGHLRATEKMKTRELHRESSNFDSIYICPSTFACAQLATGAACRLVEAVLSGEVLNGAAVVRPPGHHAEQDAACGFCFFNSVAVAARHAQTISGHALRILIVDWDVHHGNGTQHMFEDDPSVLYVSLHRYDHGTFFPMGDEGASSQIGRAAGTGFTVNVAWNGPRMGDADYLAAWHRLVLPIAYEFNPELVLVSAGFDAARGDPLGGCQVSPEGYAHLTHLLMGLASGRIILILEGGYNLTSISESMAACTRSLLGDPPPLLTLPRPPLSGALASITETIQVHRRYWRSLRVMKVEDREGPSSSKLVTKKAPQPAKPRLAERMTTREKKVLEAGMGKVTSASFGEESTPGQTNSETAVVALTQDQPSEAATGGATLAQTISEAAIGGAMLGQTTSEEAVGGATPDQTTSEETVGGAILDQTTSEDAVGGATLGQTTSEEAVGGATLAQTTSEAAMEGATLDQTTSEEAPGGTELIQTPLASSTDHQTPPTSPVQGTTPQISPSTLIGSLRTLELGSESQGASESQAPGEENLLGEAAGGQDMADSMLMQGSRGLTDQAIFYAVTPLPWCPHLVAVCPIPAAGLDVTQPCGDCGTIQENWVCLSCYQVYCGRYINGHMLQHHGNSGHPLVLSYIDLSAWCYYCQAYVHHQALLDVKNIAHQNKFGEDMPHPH
assay.overview: HDAC inhibitory assay, HDAC6 (Boc-Lys(Ac)-AMC substrate)
Format: biochemical
stated.conditions: test concentration not given; average of triplicate
Structures can show the parent of a compound that is named as a salt.
Entries and their HDAC 6 inhibitory activity values follow.
Numbers only; they are read as %.

                                   compound  observed_measurement
0  O=C(NCc1ccc(-c2ccccc2)cc1)c1coc(-c2ccccc2O)n1 [Example 6]                  47.8
1  O=C(NCC(c1ccccc1)c1ccccc1)c1coc(-c2ccccc2O)n1 [Example 3]                  49.1
2  O=C(Nc1ccccc1)c1ccc(CNC(=O)c2coc(-c3ccccc3O)n2)cc1 [Example 15]                  30.8
3  O=C(NCCCCNCCC(c1ccccc1)c1ccccc1)c1coc(-c2ccccc2O)n1 [Example 12, hydrochloride]                  28.9
4  O=C(Nc1ccccc1)c1coc(-c2ccccc2O)n1 [Example 1]                  50.3

Short answer on Recombinant human HDAC6 (Homo sapiens) for O=C(NCCc1c[nH]c2ccccc12)c1coc(-c2ccccc2O)n1 [Example 8] , HDAC 6 inhibitory activity: 30.8

Per the reported Recombinant human HDAC6 (Homo sapiens) data, O=C(NCCCCN1C(=O)c2ccccc2C1=O)c1coc(-c2ccccc2O)n1 [Example 9] has HDAC 6 inhibitory activity of 46.0

Form field HDAC 6 inhibitory activity for item O=C(NCCCCNC(=O)C(c1ccccc1)c1ccccc1)c1coc(-c2ccccc2O)n1 [Example 10] on Recombinant human HDAC6 (Homo sapiens): 26.7

HDAC 6 inhibitory activity value, target or system Recombinant human HDAC6 (Homo sapiens), for O=C(NCCC(c1ccccc1)c1ccccc1)c1coc(-c2ccccc2O)n1 [Example 4] : 48.1
